System: DU-145
assay-remarks: Antitumor activity against human DU-145 cells assessed as growth inhibition at 10 uM relative to control
Type: functional
protocol-conditions: read-out: GI
Lab note: compare inhibition of growth at 10 µM against 20%. Equal or greater, write Y. Smaller, write N.

Use the examples below as a reference point.
inhibition of growth at 10 µM >= 20% for CSc1nc(-c2ccc(Cl)cc2)c(C#N)c(N2CCOCC2)n1 ?
N

Would you say Cc1cc(C)n(-c2nc(-c3ccc(Cl)cc3)c(C#N)c(N3CCOCC3)n2)n1 shows inhibition of growth at 10 µM at minimum 20%?
N

Threshold query (inhibition of growth at 10 µM >= 20%) on N#Cc1c(-c2ccc(Cl)cc2)nc(N/N=C/c2cccc(O)c2)nc1N1CCOCC1
Y

Given the entry N#Cc1c(-c2ccc(Cl)cc2)nc(N/N=C/c2ccco2)nc1N1CCOCC1 , answer whether its inhibition of growth at 10 µM meets or surpasses 20%.
N

Threshold query (inhibition of growth at 10 µM >= 20%) on N#Cc1c(-c2ccc(Cl)cc2)nc(N/N=C/c2cccc([N+](=O)[O-])c2)nc1N1CCOCC1
N

Textbook exercise: given the entry N#Cc1c(-c2ccc(Cl)cc2)nc(N/N=C/c2cccc(Br)c2)nc1N1CCOCC1 , state whether its inhibition of growth at 10 µM is greater than or equal to 20%.
Y

More entries:
Is reported inhibition of growth at 10 µM greater than or equal to 20% here: N#Cc1c(-c2ccc(Cl)cc2)nc(N/N=C/c2ccc[nH]2)nc1N1CCOCC1
N

# check: inhibition of growth at 10 µM of N#Cc1c(-c2ccc(Cl)cc2)[nH]c(=S)[nH]c1=O is greater than or equal to 20%
N

Hi team, for N#Cc1c(-c2ccc(Cl)cc2)nc(N/N=C2/C(=O)Nc3ccc(Cl)cc32)nc1N1CCOCC1 , is the recorded inhibition of growth at 10 µM at or above 20%?
N

Exam item: decide whether the reported inhibition of growth at 10 µM for CSc1nc(O)c(C#N)c(-c2ccc(Cl)cc2)n1 is at least 20%.
N

Could you please find out whether COc1cc(/C=N/Nc2nc(-c3ccc(Cl)cc3)c(C#N)c(N3CCOCC3)n2)cc(OC)c1OC has inhibition of growth at 10 µM that meets 20% or exceeds it?
Y

Given the entry N#Cc1c(-c2ccc(Cl)cc2)nc(NN2C(=O)c3ccccc3C2=O)nc1N1CCOCC1 , answer whether its inhibition of growth at 10 µM meets or surpasses 20%.
N

Has N#Cc1c(-c2ccc(Cl)cc2)nc(N/N=C/c2cccc(Cl)c2)nc1N1CCOCC1 a recorded inhibition of growth at 10 µM greater than or equal to 20%?
Y

Hello, I need to know if CSc1nc(Cl)c(C#N)c(-c2ccc(Cl)cc2)n1 has measured inhibition of growth at 10 µM not below 20%. Thanks!
N

Is it the case that N#Cc1c(-c2ccc(Cl)cc2)nc(N2NC(=O)CC2=N)nc1N1CCOCC1 has inhibition of growth at 10 µM reaching or exceeding 20%?
N

For this compound, is measured inhibition of growth at 10 µM 20% or higher? N#Cc1c(-c2ccc(Cl)cc2)nc(NN)nc1N1CCOCC1
N

* * *

Tested on: UACC-62
assay-remarks: Antitumor activity against human UACC-62 cells assessed as growth inhibition at 10 uM relative to control
Assay type: functional
protocol-conditions: read-out: GI
readout-name: inhibition of growth at 10 µM

Please review the entries below; each comes with its answer.
Suppose we examine the compound CSc1nc(O)c(C#N)c(-c2ccc(Cl)cc2)n1 ; what inhibition of growth at 10 µM value has been reported?
< 1%

Need inhibition of growth at 10 µM, item N#Cc1c(-c2ccc(Cl)cc2)[nH]c(=S)[nH]c1=O
< 1%

Which inhibition of growth at 10 µM value belongs to CSc1nc(-c2ccc(Cl)cc2)c(C#N)c(N2CCOCC2)n1 ?
< 1%

Form field: reported inhibition of growth at 10 µM of N#Cc1c(-c2ccc(Cl)cc2)nc(N/N=C2/C(=O)Nc3ccc(Br)cc32)nc1N1CCOCC1
< 1%

Endpoint output: inhibition of growth at 10 µM of N#Cc1c(-c2ccc(Cl)cc2)nc(N/N=C/c2cccc(O)c2)nc1N1CCOCC1 . Value?
< 1%

From here, focus on the item given below.
Consider the compound N#Cc1c(-c2ccc(Cl)cc2)nc(N/N=C/c2cccc(Cl)c2)nc1N1CCOCC1 and give its measured inhibition of growth at 10 µM.
< 1%

* * *

System: SK-MEL-5
assay-remarks: Antitumor activity against human SK-MEL-5 cells assessed as growth inhibition at 10 uM relative to control
Type: functional
protocol-conditions: read-out: GI
Each entry below carries its recorded inhibition of growth at 10 µM.

I would be grateful if you could share the reported inhibition of growth at 10 µM for CC1=NN(c2nc(-c3ccc(Cl)cc3)c(C#N)c(N3CCOCC3)n2)C(=O)C1 .
< 1%

Returns the measured inhibition of growth at 10 µM for the input compound. Input: N#Cc1c(-c2ccc(Cl)cc2)[nH]c(=S)[nH]c1=O
< 1%

Sample N#Cc1c(-c2ccc(Cl)cc2)nc(N/N=C/c2cccc(O)c2)nc1N1CCOCC1 — what was its inhibition of growth at 10 µM?
23.5%

Look at this compound and give its reported inhibition of growth at 10 µM. CSc1nc(Cl)c(C#N)c(-c2ccc(Cl)cc2)n1
< 1%

Given N#Cc1c(-c2ccc(Cl)cc2)nc(N/N=C/c2cccc([N+](=O)[O-])c2)nc1N1CCOCC1 , state its recorded inhibition of growth at 10 µM.
14.9%

More entries:
I am curious: what inhibition of growth at 10 µM value has been reported for N#Cc1c(-c2ccc(Cl)cc2)nc(N/N=C2/C(=O)Nc3ccc(Br)cc32)nc1N1CCOCC1 ?
< 1%

Quick one: inhibition of growth at 10 µM of N#Cc1c(-c2ccc(Cl)cc2)nc(N/N=C2/C(=O)Nc3ccccc32)nc1N1CCOCC1 ?
< 1%

Item under review: N#Cc1c(-c2ccc(Cl)cc2)nc(NN)nc1N1CCOCC1 . Reported inhibition of growth at 10 µM?
< 1%

* * *

This section presents compounds with their documented inhibition of growth at 10 µM values.
Tested on: OVCAR-8
assay-remarks: Antitumor activity against human OVCAR-8 cells assessed as growth inhibition at 10 uM relative to control
Format: functional
protocol-conditions: read-out: GI

# input compound: N#Cc1c(-c2ccc(Cl)cc2)nc(N/N=C2/C(=O)Nc3ccc(Br)cc32)nc1N1CCOCC1 ; wanted: its inhibition of growth at 10 µM
< 1%

Could you share which inhibition of growth at 10 µM value was measured for N#Cc1c(-c2ccc(Cl)cc2)nc(N/N=C/c2ccc[nH]2)nc1N1CCOCC1 ?
14.9%

I have this compound here, CSc1nc(-c2ccc(Cl)cc2)c(C#N)c(N2CCOCC2)n1 , and I need its recorded inhibition of growth at 10 µM.
< 1%

I would be grateful if you could share the reported inhibition of growth at 10 µM for Cc1cc(C)n(-c2nc(-c3ccc(Cl)cc3)c(C#N)c(N3CCOCC3)n2)n1 .
< 1%

Kindly review the next compound as well.
Entry N#Cc1c(-c2ccc(Cl)cc2)nc(N/N=C/c2cccc(Cl)c2)nc1N1CCOCC1 : reported inhibition of growth at 10 µM = ?
< 1%

* * *

Test system: MOLT-4
assay-remarks: Antitumor activity against human MOLT-4 cells assessed as growth inhibition at 10 uM relative to control
Type: functional
protocol-conditions: read-out: GI
Listed next: entries and their corresponding inhibition of growth at 10 µM.

Consider the reported inhibition of growth at 10 µM for these compounds:
So what's the measured inhibition of growth at 10 µM for this one? CSc1nc(-c2ccc(Cl)cc2)c(C#N)c(N2CCOCC2)n1
< 1%

Please give the measured inhibition of growth at 10 µM for this compound: CC1=NN(c2nc(-c3ccc(Cl)cc3)c(C#N)c(N3CCOCC3)n2)C(=O)C1
< 1%

Requested read-out: inhibition of growth at 10 µM. Entry: N#Cc1c(-c2ccc(Cl)cc2)nc(N/N=C2/C(=O)Nc3ccccc32)nc1N1CCOCC1
< 1%

inhibition of growth at 10 µM for CSc1nc(O)c(C#N)c(-c2ccc(Cl)cc2)n1 ?
< 1%

What does the data say about its inhibition of growth at 10 µM? Entry: N#Cc1c(-c2ccc(Cl)cc2)nc(NN2C(=O)CCC2=O)nc1N1CCOCC1
< 1%

Note: attention shifts to another entry.
Any idea what inhibition of growth at 10 µM was measured for N#Cc1c(-c2ccc(Cl)cc2)nc(N/N=C2/C(=O)Nc3ccc(Cl)cc32)nc1N1CCOCC1 ?
< 1%

* * *

Tested on: HT-29
assay-remarks: Antitumor activity against human HT-29 cells assessed as growth inhibition at 10 uM relative to control
Type: functional
protocol-conditions: read-out: GI
readout-name: inhibition of growth at 10 µM

# lookup: inhibition of growth at 10 µM of N#Cc1c(-c2ccc(Cl)cc2)nc(N/N=C/c2cccc(Cl)c2)nc1N1CCOCC1
59.6%

Sample N#Cc1c(-c2ccc(Cl)cc2)nc(N/N=C2/C(=O)Nc3ccc(Cl)cc32)nc1N1CCOCC1 — what was its inhibition of growth at 10 µM?
< 1%

Which value of inhibition of growth at 10 µM has been reported for CC1=NN(c2nc(-c3ccc(Cl)cc3)c(C#N)c(N3CCOCC3)n2)C(=O)C1 in the records?
< 1%

meta.source: ChEMBL document CHEMBL5376013
